Below, each entry is listed alongside its reported Average Area Under the Viability Curve (AUC), AUC norm value.
- System: MKN28
- Method notes: Cell viability drug screen, 12-point dose-response AUC
- Assay type: cell-based, human
- Experimental setup: MKN28 cells; 72 hours
Just the number, please, no unit after it.

Task: Reported Average Area Under the Viability Curve (AUC), AUC norm value, compound CCCCCCCCCCCCCCCC[N+](C)(C)CCN(Cc1ccc(OC)cc1)c1ncccn1 [Thonzonium Bromide] : ____
Result: 0.07021

Task: State the recorded Average Area Under the Viability Curve (AUC), AUC norm value for this entry: c1ccc2c(-c3cnn4cc(-c5ccc(N6CCNCC6)cc5)cnc34)ccnc2c1
Result: 0.5758

Task: Which measured Average Area Under the Viability Curve (AUC), AUC norm value value corresponds to Nc1nc(F)nc2c1ncn2[C@@H]1O[C@H](COP(=O)(O)O)[C@@H](O)[C@@H]1O [Fludarabine Phosphate (Fludara), Fludarabine Phosphate] ?
Result: 0.00328

Task: What does the data say about its Average Area Under the Viability Curve (AUC), AUC norm value? Entry: COc1cc(N2CCC(N3CCN(C)CC3)CC2)ccc1Nc1ncc(Cl)c(Nc2ccccc2S(=O)(=O)C(C)C)n1
Result: −0.4177

Task: I have this compound here, CN(C)Cc1c(C(=O)NCCOc2ccc(C(=O)NO)cc2)oc2ccccc12 , and I need its recorded Average Area Under the Viability Curve (AUC), AUC norm value.
Result: −0.378

Task: // Average Area Under the Viability Curve (AUC), AUC norm value lookup, key: O=C(Nc1c[nH]nc1-c1nc2ccc(CN3CCOCC3)cc2[nH]1)NC1CC1
Result: −1.903

====

As shown below, each of these compounds has a reported area under the viability curve (AUC), normalized value.
- Test system: SNU620
- Method notes: Cell viability drug screen, 12-point dose-response AUC
- Format: cell-based, human
- Experimental setup: SNU620 cells; 72 hours; 12-point dose-response
// no unit, no text: just the number

Some compounds with recorded area under the viability curve (AUC), normalized:
C#Cc1cccc(Nc2ncnc3cc(OC)c(OCCCCCCC(=O)NO)cc23)c1 ... −0.4289
COCCn1c2c([n+](Cc3cnccn3)c1C)C(=O)c1ccccc1C2=O ... 1.29
CC(C)C[C@H](NC(=O)[C@H](Cc1ccccc1)NC(=O)c1cnccn1)B(O)O ... −0.6115
COc1ncc(-c2ccc3nccc(-c4ccnnc4)c3c2)cc1NS(=O)(=O)c1ccc(F)cc1F ... −0.7945
CC(=O)O[C@H]1C(=O)[C@@]2(C)[C@H]([C@H](OC(=O)c3ccccc3)[C@]3(O)C[C@H](OC(=O)[C@H](O)[C@@H](NC(=O)c4ccccc4)c4ccccc4)C(C)=C1C3(C)C)[C@]1(OC(C)=O)CO[C@@H]1C[C@@H]2O ... −1.998

Task: Suppose we examine the compound C[C@@H]1O[C@@H](O[C@H]2C[C@@H](O)[C@]3(CO)[C@H]4[C@H](O)C[C@]5(C)[C@@H](C6=CC(=O)OC6)CC[C@]5(O)[C@@H]4CC[C@]3(O)C2)[C@H](O)[C@H](O)[C@H]1O ; what area under the viability curve (AUC), normalized value has been reported?
Result: 0

====

- Tested on: Hs746T
- Method notes: Cell viability drug screen, 12-point dose-response AUC
- Format: cell-based, human
- Experimental setup: Hs746T cells; 72 hours; 12-point dose-response
One threshold, 0.2, splits the recorded area under the viability curve (AUC), normalized values: lower ones are 1, equal or higher ones are 0.

Use these answered entries as a reference point.
CC(C)C[C@H](NC(=O)[C@H](Cc1ccccc1)NC(=O)c1cnccn1)B(O)O [Bortezomib (Velcade), Bortezomib] ... 1
CN(C)c1ccc(C(=C2C=CC(=[N+](C)C)C=C2)c2ccc(N(C)C)cc2)cc1 [Crystal Violet, Crystal violet] ... 1
Cc1cnc(NC(=O)Nc2cc(Br)c(C)cc2OC[C@@H]2CNCCO2)cn1 [LY2603618] ... 1
Cc1ccc(C(=O)N(CCCN)[C@@H](c2oc3cc(Cl)ccc3c(=O)c2Cc2ccccc2)C(C)C)cc1 [SB 743921] ... 0
Nc1cc(C(F)(F)F)c(-c2cc(N3CCOCC3)nc(N3CCOCC3)n2)cn1 [BKM120] ... 1
CCCOc1ccc2nc(NC(=O)OC)[nH]c2c1 [Oxybendazole] ... 0
COCCn1c2c([n+](Cc3cnccn3)c1C)C(=O)c1ccccc1C2=O [YM155] ... 1
CC(C)[C@]12O[C@H]1[C@@H]1O[C@]13[C@]1(O[C@H]1C[C@H]1C4=C(CC[C@@]13C)C(=O)OC4)[C@@H]2O [Triptolide] ... 1

Task: In the record for C#Cc1cccc(Nc2ncnc3cc(OC)c(OCCCCCCC(=O)NO)cc23)c1 [CUDC-101] , is area under the viability curve (AUC), normalized less than 0.2?
Result: 0

Task: Check if area under the viability curve (AUC), normalized falls below 0.2 for CC(=O)O[C@H]1C(=O)[C@@]2(C)[C@H]([C@H](OC(=O)c3ccccc3)[C@]3(O)C[C@H](OC(=O)[C@H](O)[C@@H](NC(=O)c4ccccc4)c4ccccc4)C(C)=C1C3(C)C)[C@]1(OC(C)=O)CO[C@@H]1C[C@@H]2O [Paclitaxel (Taxol), Paclitaxel] .
Result: 0

Task: Below 0.2 on area under the viability curve (AUC), normalized? Entry COC(=O)Nc1nc2ccc(Sc3ccccc3)cc2[nH]1 [Fenbendazole]
Result: 0

Task: Please state whether area under the viability curve (AUC), normalized is below 0.2 for C/C(=C\c1csc(C)n1)[C@@H]1C[C@@H]2O[C@@H]2CCC[C@H](C)[C@H](O)[C@@H](C)C(=O)C(C)(C)[C@@H](O)CC(=O)O1 [Epothilone A]
Result: 0

// data source = patent US20250129430A1
